Reference for the values: patent US20250154198A1

Could you please report measured IC50 (pSTAT3) for the items listed next?
Target: T1, human IL-23R endogenously expressed on DB cells (CRL-2289) (human, UniProt Q5VWK5 24-629)
T1 sequence (looked up): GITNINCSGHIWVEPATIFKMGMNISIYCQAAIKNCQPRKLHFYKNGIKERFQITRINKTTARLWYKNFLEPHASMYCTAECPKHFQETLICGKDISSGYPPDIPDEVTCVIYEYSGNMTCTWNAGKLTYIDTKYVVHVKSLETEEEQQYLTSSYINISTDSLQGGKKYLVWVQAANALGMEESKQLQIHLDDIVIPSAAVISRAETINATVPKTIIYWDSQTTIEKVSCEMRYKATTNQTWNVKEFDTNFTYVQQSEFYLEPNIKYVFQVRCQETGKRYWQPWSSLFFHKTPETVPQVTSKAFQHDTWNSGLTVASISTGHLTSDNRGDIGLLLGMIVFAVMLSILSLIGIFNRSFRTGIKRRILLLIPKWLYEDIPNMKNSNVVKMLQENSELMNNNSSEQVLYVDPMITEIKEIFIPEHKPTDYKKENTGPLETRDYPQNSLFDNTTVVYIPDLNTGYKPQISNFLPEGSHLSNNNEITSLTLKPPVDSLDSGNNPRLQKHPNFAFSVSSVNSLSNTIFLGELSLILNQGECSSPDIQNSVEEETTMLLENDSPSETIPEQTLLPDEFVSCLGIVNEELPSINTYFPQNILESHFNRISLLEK
Experiment: cell-based or functional assay
*1 amine or outer side, *2 acyl side, *3 side chain or, on linkers, in order; H or OH if unused. Bridges are numbered along the chain shown (N, C = ends). [ ]: non-standard residue; d: D form. 4‑Aminomethyl‑phenylacetyl = 4-aminomethyl-phenylacetyl unit, its amine closes the lactam, O=C(Cc1ccc(CN[*:1])cc1)[*:2]; 2Nal = N[C@@H](Cc1ccc2ccccc2c1)C(=O)O; AEF = NCCOc1ccc(C[C@H](N)C(=O)O)cc1; 3Pal = N[C@@H](Cc1cccnc1)C(=O)O; αMeL = CC(C)C[C@](C)(N)C(=O)O; CH2COCH2 = O=C(C[*:1])C[*:2]; 3Amb = NCc1cccc(C(=O)O)c1; Orn = NCCC[C@H](N)C(=O)O; Dab = NCC[C@H](N)C(=O)O
One number for each entry, in nM.

INSERT INTO assay_data (binder, recorded_endpoint, unit_of_measure, obs_value) VALUES
  ('[4‑Aminomethyl‑phenylacetyl]SEWQ[Orn][AEF][2Nal][αMeL]E[Dab][3Pal]-NH2 (lactam N-10, 3-6; SMILES CC(C)C[C@]1(C)NC(=O)[C@H](Cc2ccc3ccccc3c2)NC(=O)[C@H](Cc2ccc(OCCN)cc2)NC(=O)[C@@H]2CCCNC(=O)CC[C@H](NC(=O)[C@H](CO)NC(=O)Cc3ccc(cc3)CNC(=O)CC[C@@H](C(=O)N[C@@H](CCN)C(=O)N[C@@H](Cc3cccnc3)C(N)=O)NC1=O)C(=O)N[C@@H](Cc1c[nH]c3ccccc13)C(=O)N[C@@H](CCC(N)=O)C(=O)N2) [Compound 124]', 'IC50 (pSTAT3)', 'nM', 0.117);

Data request: Looking for the measured IC50 (pSTAT3) of [3Amb]SCWQC[AEF][2Nal][αMeL]ES-NH2 (lactam N-10; linker 3-6 via CH2COCH2; SMILES CC(C)C[C@]1(C)NC(=O)[C@H](Cc2ccc3ccccc3c2)NC(=O)[C@H](Cc2ccc(OCCN)cc2)NC(=O)[C@@H]2CSCC(=O)CSC[C@H](NC(=O)[C@H](CO)NC(=O)c3cccc(c3)CNC(=O)CC[C@@H](C(=O)N[C@@H](CO)C(N)=O)NC1=O)C(=O)N[C@@H](Cc1c[nH]c3ccccc13)C(=O)N[C@@H](CCC(N)=O)C(=O)N2) [Compound 44] , can you help?
Data returned: 82.3
